Recorded values, source ChEMBL document CHEMBL1201862.

- Tested on: SF-268
- Test details: NCI tumour cell line growth inhibition, 48 h
Calls of active or inactive are those of the source. No stated cut-off is given here; in the data, active = GI50 up to about 1.1 µM and inactive = higher.
Measurement label: GI50

Consider the reported GI50 for these molecules:
INSERT INTO measurements (molecule, result) VALUES
  ('CSc1nc(SC)c2c(C)c(Br)[nH]c2n1', '> 100 µM (inactive)'),
  ('COc1cccc(/C=C\c2ccnc3ccccc23)c1', '> 10 µM (inactive)'),
  ('Cc1cc(S(=O)(=O)Nc2nc(N)nc(N3N=CCC3C)n2)c(SCC(=O)O)cc1Cl (stereo unspecified)', '> 10 µM (inactive)'),
  ('C=C(Br)CNCC(=C)Br', '> 100 µM (inactive)'),
  ('CCOC(=O)c1oc2ccc([N+](=O)[O-])c3c2c1CCC3', '27.2 µM (inactive)');

Record GI50 per entry; entries follow.
1. O=C(CCO)OCCCCCC/C=C\CCCCCC/C=C\CCCCCCCCOC(=O)CCO
2. O=S(=O)(/C=C/c1ccc(F)cc1)Cc1ccc(CS(=O)(=O)/C=C/c2ccc(F)cc2)cc1
3. CC1CCc2sc3nc(S)n(-c4ccccc4)c(=O)c3c2C1 (stereo unspecified)

Ans.
1. 18.5 µM (inactive)
2. > 100 µM (inactive)
3. 85.7 µM (inactive)

====

- System: MDA-MB-435
- Test details: NCI tumour cell line growth inhibition, 48 h
The source made the active and inactive calls. Cut-off read from the data, not from the text of the source: active = GI50 up to about 1.1 µM and inactive = higher.
Record form. Attribute: GI50. Fill in for each entry.

INSERT INTO measurements (compound, tested_on, measurement_label, result) VALUES
  ('C[N+](C)(CCCCCC[N+](C)(C)CCCN1C(=O)c2cccc3cccc(c23)C1=O)CCCN1C(=O)c2cccc3cccc(c23)C1=O', 'MDA-MB-435', 'GI50', '> 100 µM (inactive)'),
  ('Cc1ccc(S(=O)(=O)NC2=NS(=O)(=O)c3cc(C)c(Cl)cc3S2)cc1', 'MDA-MB-435', 'GI50', '> 100 µM (inactive)'),
  ('CCCCCCCCCCCCCCCCOc1ccc(/C=C/C2=[N+](CCCl)CCO2)cc1', 'MDA-MB-435', 'GI50', '> 100 µM (inactive)'),
  ('COc1ccccc1C1ON=C(c2ccc([N+](=O)[O-])cc2)N1C12CC3CC(CC(C3)C1)C2 (stereo unspecified)', 'MDA-MB-435', 'GI50', '96.4 µM (inactive)');

Record GI50 per entry; entries follow.
1. Cc1occc1C(=S)Nc1ccc(Cl)c(C(=O)OC(C)C2CC2)c1 (stereo unspecified)
2. CC1=C(SCc2ccccc2)C(=O)c2ccccc2C1=O
3. CC1=C(C(=O)OC2CC3CCC2(C)C3(C)C)C2Nc3ccccc3N(C)C2O1 (stereo unspecified)

Ans.
1. 24.8 µM (inactive)
2. 14.6 µM (inactive)
3. 1.54 µM (inactive)

====

- Test system: NCI-H460
- Test details: NCI tumour cell line growth inhibition, 48 h
The source made the active and inactive calls. No stated cut-off is given here; in the data, active = GI50 up to about 1.1 µM and inactive = higher.
Return exactly one item of Yes (active), No (inactive)

Solved entries (count: 5):
INSERT INTO results (compound, assigned_class) VALUES
  ('COC1=CC(=O)c2c(c(COP(=O)(N(C)CCBr)N(C)CCBr)cn2C)C1=O', 'Yes'),
  ('C/C(=N\N=C(/[SeH])N1CC2CCC(CC2)C1)c1ccccn1', 'Yes'),
  ('COc1ccc2cc(Oc3ccc(Cl)cc3)c(=O)oc2c1', 'No'),
  ('Nc1nc(O)nc2c1ncn2C1OC(CO)C(O)C1O (stereo unspecified)', 'No'),
  ('Cc1nc(O)nc2nc3ccc(Cl)cc3c(NCCNCCO)c12', 'No');

From here, focus on the item given below.
Qu. Please indicate how the test categorized `CN1Cc2c(nc(-c3ccc(Br)cc3)c[n+]2[O-])N(C)C1` .
Ans. No

====

- System: BT-549
- Test details: NCI tumour cell line growth inhibition, 48 h
Calls of active or inactive are those of the source. No stated cut-off is given here; in the data, active = GI50 up to about 1.1 µM and inactive = higher.
Measurement label: GI50

INSERT INTO assay_data (compound, result) VALUES
  ('COc1ccc(C[N+](C)(C)N)cc1OC', '> 10 µM (inactive)'),
  ('CC1CC(OP(=O)(OCc2ccccc2)OCc2ccccc2)[C@@H](OCc2ccccc2)C(OCc2ccccc2)C1OCc1ccccc1 (stereo partly drawn)', '79.3 µM (inactive)');

Qu. Reported GI50 for `CCN1C(NN)=NS(=O)(=O)c2ccccc21` : what is it?
Ans. > 100 µM (inactive)

====

- Test system: A549
- Test details: NCI tumour cell line growth inhibition, 48 h
The source made the active and inactive calls. No stated cut-off is given here; in the data, active = GI50 up to about 1.1 µM and inactive = higher.
Record form. Attribute: GI50. Fill in for each entry.

Record GI50 per entry; entries follow.
1. Oc1[nH]c(Nc2ccc(F)c(Cl)c2)nc2ncnc1-2
2. COc1ccc(-c2nc3ccc(C)cc3o2)c(OC)c1
3. Nc1ccc(S(=O)(=O)Nc2cnc3c(Cl)cccc3n2)cc1 [CHLORSULFAQUINOXALINE]
4. Cc1ccc(NC(=O)CC2SC(=N)NC2=O)cc1C (stereo not drawn)
5. CCN1CC(C)Cn2c(=O)[nH]c3cc(Br)cc1c32 (stereo not drawn)

Ans.
> 100 µM (inactive)
4.76 µM (inactive)
117 µM (inactive)
> 100 µM (inactive)
25.6 µM (inactive)

====

- System: CCRF-CEM
- Test details: NCI tumour cell line growth inhibition, 48 h
Structures can show the parent of a compound that is named as a salt. Calls of active or inactive are those of the source. Cut-off read from the data, not from the text of the source: active = GI50 up to about 1.1 µM and inactive = higher.
Return exactly one item of active, inactive

Solved entries (count: 3):
INSERT INTO assay_data (compound, assigned_class) VALUES
  ('COC(=O)c1cc(NC(=O)c2cc(NC(=O)c3cc([N+](=O)[O-])cn3C)cn2C)cn1C', 'inactive'),
  ('CC[C@@]1(O)C(=O)OCc2c1cc1n(c2=O)Cc2c-1nc1ccccc1c2/C=N/c1ccccc1N[C@@H]1c2cc3c(cc2[C@@H](c2cc(OC)c(O)c(OC)c2)[C@H]2C(=O)OC[C@@H]21)OCO3', 'active'),
  ('COC(=O)C1=C(C)C(=O)[C@]23C(CCCC[C@H]12)C(=O)[C@H](C(=O)OC)C3C (some centres undefined)', 'inactive');

Qu. Please indicate how the test categorized O=C1SC(SCc2ccccc2)=NC12CC2c1ccccc1 (centres undefined) .
Ans. inactive

Qu. Please indicate how the test categorized Cc1nn(C(=O)c2ccc(Cl)cc2)c2c1C(/C=C/c1ccccc1)SC(=N)N2 (centres undefined) .
Ans. inactive

Qu. Please indicate how the test categorized CN1C(=O)C(O)CC1c1cccc(F)c1 (centres undefined) .
Ans. inactive

Qu. Please indicate how the test categorized `CCOC(=O)NC(Nc1ccc(C(=O)OCC)cc1)(C(F)(F)F)C(F)(F)F` .
Ans. inactive

Qu. Please indicate how the test categorized `COC1=CC(=O)c2c(c(COP(=O)(N(C)CCBr)N(C)CCBr)cn2C)C1=O` .
Ans. active

Qu. Please indicate how the test categorized `O=C1c2ccccc2C(=O)c2[nH]c(Cc3ccccc3F)nc21` .
Ans. inactive

Qu. Please indicate how the test categorized `NCCNc1ncnc2ccc(Cl)cc12` .
Ans. inactive

Qu. Please indicate how the test categorized `O=C(c1ccco1)N(Cc1cccnc1)C(=S)N(Cc1cccnc1)C(=O)c1ccco1` .
Ans. inactive

Qu. Please indicate how the test categorized `CCCO/N=[N+](\[O-])N(CC)CC` .
Ans. inactive

Qu. Please indicate how the test categorized OC1CCC(COC(c2ccccc2)(c2ccccc2)c2ccccc2)O1 (centres undefined) .
Ans. inactive

Qu. Please indicate how the test categorized CC12CCC(C(Nc3ccccn3)C1=O)C2(C)C (centres undefined) .
Ans. inactive

Qu. Please indicate how the test categorized c1ccc([C@H]2CN3CCSC3=N2)cc1 [LEVAMISOLE HYDROCHLORIDE] .
Ans. inactive

Qu. Please indicate how the test categorized Nc1nc(O)nc2c1ncn2C1OC(CO)C(O)C1O (centres undefined) .
Ans. inactive

Qu. Please indicate how the test categorized CC(=O)NC(C=O)C(O[C@H](C)C(=O)NC(C)C(=O)NC(CCC(N)=O)C(=O)OCc1ccccc1)C(O)C(O)COC(=O)CCNc1c2ccccc2nc2cccc([N+](=O)[O-])c12 (some centres undefined) .
Ans. inactive

Qu. Please indicate how the test categorized `NCCP(=O)(O)O` .
Ans. inactive

Qu. Please indicate how the test categorized COC(=O)C(C(=O)C(N)=O)c1csc(-n2nc(-c3ccccc3)cc2-c2ccccc2)n1 (centres undefined) .
Ans. inactive

====

- Tested on: ACHN
- Test details: NCI tumour cell line growth inhibition, 48 h
Activity calls are given as the source filed them. No stated cut-off is given here; in the data, active = GI50 up to about 1.1 µM and inactive = higher.
Return exactly one item of active, inactive

Solved entries (count: 5):
INSERT INTO results (compound, tested_on, assigned_class) VALUES
  ('COc1ccc(/N=N/c2ccc3oc(=O)c(C(=O)Nc4ccccc4C)cc3c2)cc1', 'ACHN', 'inactive'),
  ('O=C1C2=C(CCC2)Nc2cccc3ncn1c23', 'ACHN', 'inactive'),
  ('CCOc1ccccc1NC(=O)C(=O)CC(=O)c1c(C)[n+]([O-])c2ccccc2[n+]1[O-]', 'ACHN', 'inactive'),
  ('COc1ccc2c(C(=O)c3cn(CCN4CCOCC4)c4ccccc34)cccc2c1', 'ACHN', 'inactive'),
  ('COc1cc([C@H]2Oc3cc(O)c4c(=O)cc(-c5ccccc5)oc4c3O[C@@H]2CO)ccc1O', 'ACHN', 'inactive');

Qu. Please indicate how the test categorized `Nc1ncnc2c1ncn2CCCNO` .
Ans. inactive

Qu. Please indicate how the test categorized `NS(=O)(=O)c1ccc(/N=N/c2nc3nc(O)nc(O)c3[nH]2)cc1` .
Ans. inactive

Qu. Please indicate how the test categorized COc1ccccc1C1ON=C(c2ccc([N+](=O)[O-])cc2)N1C12CC3CC(CC(C3)C1)C2 (centres undefined) .
Ans. inactive

Qu. Please indicate how the test categorized `CCOC(=O)Nc1cc2c(c(N)n1)N=C(c1ccc(OC)cc1)CN2` .
Ans. active

Qu. Please indicate how the test categorized COc1ccc2c(c1)OCC1Cc3cc4c(cc3OC21)OCO4 (centres undefined) .
Ans. inactive
